Target: rat angiotensin 2 type 1 receptor (rat)
Experiment: cell-based or functional assay
Readout: IP One EC50

Here's what some known entries look like.
substance="SEQ ID NO: 84 (Sar-Arg-Val-Tyr-OMTh-His-Pro-D-Ala-OH) (peptide)" readout="IP One EC50" test_value="> 10000 nM"
substance="SEQ ID NO: 6 (Sar-Arg-Val-Gly-Val-His-Pro-Gly-NH2) (peptide)" readout="IP One EC50" test_value="59 nM"
substance="SEQ ID NO: 65 (N-Me-Asp-Arg-Val-Tyr-Phe-His-Pro-NH2) (peptide)" readout="IP One EC50" test_value="> 10000 nM"
substance="SEQ ID NO: 2 (Sar-Arg-Val-Ile-Ile-His-Pro-Ile-NH2) (peptide)" readout="IP One EC50" test_value="360 nM"
substance="SEQ ID NO: 64 (Glu-Arg-Val-Tyr-Phe-His-Pro-NH2) (peptide)" readout="IP One EC50" test_value="> 10000 nM"

Task: Fill blank: measured IP One EC50 of the substance SEQ ID NO: 82 (NM-D-Ala-Arg-Val-Tyr-Ile-His-Pro-D-Ala-OH) (peptide) is ____.
Output: > 10000 nM

Task: Fill blank: measured IP One EC50 of the substance SEQ ID NO: 27 (Sar-Arg-Val-Tyr-Ile-His-Pro-D-Ala-OH) (peptide) is ____.
Output: > 10000 nM

Task: Fill blank: measured IP One EC50 of the substance SEQ ID NO: 3 (Sar-Arg-Val-Ile-Val-His-Pro-Ile-OH) (peptide) is ____.
Output: 41 nM

Task: Fill blank: measured IP One EC50 of the substance SEQ ID NO: 8 (Sar-Arg-Val-Tyr-Val-His-Pro-Ala-NH2) (peptide) is ____.
Output: 35 nM

Task: Fill blank: measured IP One EC50 of the substance SEQ ID NO: 83 (Sar-Arg-Val-Tyr-NVA-His-Pro-D-Ala-OH) (peptide) is ____.
Output: > 10000 nM

Task: Fill blank: measured IP One EC50 of the substance SEQ ID NO: 66 (N-Me-Glu-Arg-Val-Tyr-Phe-His-Pro-NH2) (peptide) is ____.
Output: > 10000 nM

###

Target: human angiotensin 2 type 1 receptor (human) (UniProt P30556)
Sequence (P30556 whole entry): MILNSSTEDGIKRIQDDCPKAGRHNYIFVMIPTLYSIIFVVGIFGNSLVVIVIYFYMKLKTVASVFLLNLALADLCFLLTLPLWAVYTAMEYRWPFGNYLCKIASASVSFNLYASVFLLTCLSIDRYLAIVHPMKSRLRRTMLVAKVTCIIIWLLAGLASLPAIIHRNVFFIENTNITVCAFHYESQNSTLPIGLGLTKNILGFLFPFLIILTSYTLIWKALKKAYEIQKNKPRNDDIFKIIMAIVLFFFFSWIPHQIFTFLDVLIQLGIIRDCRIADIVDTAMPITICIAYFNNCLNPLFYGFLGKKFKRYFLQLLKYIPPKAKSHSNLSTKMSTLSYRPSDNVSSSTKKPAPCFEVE
Assay: cell-based or functional assay
Entries annotated with measured b-arrestin2 Max
Param answer (str): number followed by unit.

Here's what some known entries look like.
substance="SEQ ID NO: 83 (Sar-Arg-Val-Tyr-NVA-His-Pro-D-Ala-OH) (peptide)" target_system="human angiotensin 2 type 1 receptor (human) (UniProt P30556)" readout="b-arrestin2 Max" test_value=34.3%
substance="SEQ ID NO: 25 (Asp-Arg-Val-Tyr-Ile-His-Pro-Ala-OH) (peptide)" target_system="human angiotensin 2 type 1 receptor (human) (UniProt P30556)" readout="b-arrestin2 Max" test_value=57.9%
substance="SEQ ID NO: 5 (Sar-Arg-Val-Gly-Val-His-Pro-Gly-OH) (peptide)" target_system="human angiotensin 2 type 1 receptor (human) (UniProt P30556)" readout="b-arrestin2 Max" test_value=39.4%
substance="SEQ ID NO: 82 (NM-D-Ala-Arg-Val-Tyr-Ile-His-Pro-D-Ala-OH) (peptide)" target_system="human angiotensin 2 type 1 receptor (human) (UniProt P30556)" readout="b-arrestin2 Max" test_value=38.3%
substance="SEQ ID NO: 64 (Glu-Arg-Val-Tyr-Phe-His-Pro-NH2) (peptide)" target_system="human angiotensin 2 type 1 receptor (human) (UniProt P30556)" readout="b-arrestin2 Max" test_value=20.4%
substance="SEQ ID NO: 6 (Sar-Arg-Val-Gly-Val-His-Pro-Gly-NH2) (peptide)" target_system="human angiotensin 2 type 1 receptor (human) (UniProt P30556)" readout="b-arrestin2 Max" test_value=12.1%
substance="SEQ ID NO: 44 (NMAla-Arg-Val-Tyr-Ile-His-Pro-D-Ala-OH) (peptide)" target_system="human angiotensin 2 type 1 receptor (human) (UniProt P30556)" readout="b-arrestin2 Max" test_value=47.3%
substance="SEQ ID NO: 65 (N-Me-Asp-Arg-Val-Tyr-Phe-His-Pro-NH2) (peptide)" target_system="human angiotensin 2 type 1 receptor (human) (UniProt P30556)" readout="b-arrestin2 Max" test_value=37.8%
substance="SEQ ID NO: 2 (Sar-Arg-Val-Ile-Ile-His-Pro-Ile-NH2) (peptide)" target_system="human angiotensin 2 type 1 receptor (human) (UniProt P30556)" readout="b-arrestin2 Max" test_value=24.9%
substance="SEQ ID NO: 30 (Sar-Arg-Val-Tyr-OMTh-His-Pro-Ala-OH) (peptide)" target_system="human angiotensin 2 type 1 receptor (human) (UniProt P30556)" readout="b-arrestin2 Max" test_value=68.2%

Task: Fill blank: measured b-arrestin2 Max of the substance SEQ ID NO: 66 (N-Me-Glu-Arg-Val-Tyr-Phe-His-Pro-NH2) (peptide) is ____.
Output: 30.6%

Task: Fill blank: measured b-arrestin2 Max of the substance SEQ ID NO: 84 (Sar-Arg-Val-Tyr-OMTh-His-Pro-D-Ala-OH) (peptide) is ____.
Output: 50.5%

Task: Fill blank: measured b-arrestin2 Max of the substance SEQ ID NO: 29 (Sar-Arg-Val-OMTyr-Ile-His-Pro-Ala-OH) (peptide) is ____.
Output: 43.3%

Task: Fill blank: measured b-arrestin2 Max of the substance SEQ ID NO: 3 (Sar-Arg-Val-Ile-Val-His-Pro-Ile-OH) (peptide) is ____.
Output: 36.5%

Task: Fill blank: measured b-arrestin2 Max of the substance SEQ ID NO: 8 (Sar-Arg-Val-Tyr-Val-His-Pro-Ala-NH2) (peptide) is ____.
Output: 36.9%

Task: Fill blank: measured b-arrestin2 Max of the substance SEQ ID NO: 32 (Me2G-Arg-Val-Tyr-Ile-His-Pro-Ala-OH) (peptide) is ____.
Output: 55.6%
